# assay_text: in vivo
# experimental_setup: mouse, iv, 3 mg/kg
# Description: Clearance in mouse at 3 mg/kg, iv or 10 mg/kg, po
parameter: clearance (mL/min/kg)
Numbers only, in mL/min/kg.

[ask] What does the data say about its clearance? Entry: O=C(O)c1ccc2c(c1)CCCC(c1ccc(Cl)cc1Cl)=C2c1ccc(O[C@H]2CCN(CCCF)C2)cc1
[reply] 32

---

# assay_text: physchem
# experimental_setup: buffer, pH 7.4
# Description: Lipophilicity, logD of the compound in phosphate buffer at pH 7.4
If the reported logD equals or exceeds 3, assign Y. If not, assign N.

[
  {
    "molecular_string": "Oc1ccc2c(c1)CCCC(c1ccc3[nH]ccc3c1)=C2c1ccc(O[C@H]2CCN(CCCF)C2)cc1",
    "qualitative_label": "Y"
  },
  {
    "molecular_string": "Oc1ccc2c(c1)CCCC(c1ccc3[nH]ncc3c1)=C2c1ccc(O[C@H]2CCN(CCCF)C2)cc1",
    "qualitative_label": "N"
  },
  {
    "molecular_string": "Oc1ccc2c(c1)CCCC(c1cccc(Cl)c1F)=C2c1ccc(O[C@H]2CCN(CCCF)C2)cc1",
    "qualitative_label": "Y"
  },
  {
    "molecular_string": "Oc1ccc2c(c1)CCCC(c1ccncc1)=C2c1ccc(O[C@H]2CCN(CCCF)C2)cc1",
    "qualitative_label": "N"
  },
  {
    "molecular_string": "Oc1ccc2c(c1)CCCC(c1ccccc1)=C2c1ccc(O[C@H]2CCN(CCCF)C2)cc1",
    "qualitative_label": "Y"
  }
]

[ask] Dear colleague, could you confirm whether O=C(O)c1ccc2c(c1)CCCC(c1ccc(Cl)cc1Cl)=C2c1ccc(O[C@H]2CCN(CCCF)C2)cc1 has logD at or above 3?
[reply] Y

[ask] Tell me whether logD is at least 3 here: Oc1ccc2c(c1)CCCC(c1ccccc1Cl)=C2c1ccc(O[C@H]2CCN(CCCF)C2)cc1
[reply] Y

[ask] Test whether the compound O=C(O)c1ccc2c(c1)CCCC(c1cccc(F)c1Cl)=C2c1ccc(O[C@H]2CCN(CCCF)C2)cc1 records logD of 3 or higher.
[reply] N

---

# assay_text: in vivo
# experimental_setup: mouse, po, 10 mg/kg
parameter: bioavailability (%)
Numbers only, in %.

[ask] Request the reported bioavailability associated with O=C(O)c1ccc2c(c1)CCCC(c1ccc(Cl)cc1Cl)=C2c1ccc(O[C@H]2CCN(CCCF)C2)cc1
[reply] 62

---

# assay_text: in vivo
# experimental_setup: rat, po, 10 mg/kg
parameter: bioavailability

[ask] Which bioavailability value is on record for O=C(O)c1ccc2c(c1)CCCC(c1ccc(Cl)cc1Cl)=C2c1ccc(O[C@H]2CCN(CCCF)C2)cc1 [AMCENESTRANT] ?
[reply] 76%

---

# assay_text: in vivo
# experimental_setup: mouse, iv, 3 mg/kg
# Description: Volume of distribution at steady state in mouse at 3 mg/kg, iv or 10 mg/kg, po
parameter: Vd (L/kg)
Answers are plain numbers, in L/kg.

[ask] What measured Vd goes with O=C(O)c1ccc2c(c1)CCCC(c1ccc(Cl)cc1Cl)=C2c1ccc(O[C@H]2CCN(CCCF)C2)cc1 ?
[reply] 6.1

---

# assay_text: in vivo
# experimental_setup: dog, po, 10 mg/kg
parameter: bioavailability (%)
Numbers only, in %.

[ask] I would be grateful if you could share the reported bioavailability for O=C(O)c1ccc2c(c1)CCCC(c1ccc(Cl)cc1Cl)=C2c1ccc(O[C@H]2CCN(CCCF)C2)cc1 .
[reply] 54

---

# assay_text: in vitro
# experimental_setup: mouse, microsomes
# Description: Metabolic stability in mouse microsomes assessed as total metabolism
parameter: metabolised (%)
Give bare numbers, in %.

[
  {
    "molecular_string": "O=C(O)c1ccc2c(c1)CCCC(c1ccc(SC(F)(F)F)cc1)=C2c1ccc(O[C@H]2CCN(CCCF)C2)cc1",
    "metabolised [%]": 12
  },
  {
    "molecular_string": "Oc1ccc(C2=C(c3ccc(O[C@H]4CCN(CCCF)C4)cc3)c3cc(O)ccc3CCC2)cc1",
    "metabolised [%]": 55
  },
  {
    "molecular_string": "Oc1ccc2c(c1)CCCC(c1ccncc1)=C2c1ccc(O[C@H]2CCN(CCCF)C2)cc1",
    "metabolised [%]": 39
  }
]

# per-item lookup of metabolised; items listed below
1. Oc1ccc2c(c1)CCCC(c1ccccc1)=C2c1ccc(O[C@H]2CCN(CCCF)C2)cc1
2. Oc1ccc2c(c1)CCCC(c1cccnc1)=C2c1ccc(O[C@H]2CCN(CCCF)C2)cc1

[reply]
1: 44; 2: 31

Please state metabolised for every compound in the list that follows.
1. Oc1ccc2c(c1)CCCC(c1ccc3[nH]ccc3c1)=C2c1ccc(O[C@H]2CCN(CCCF)C2)cc1
2. Oc1ccc2c(c1)CCCC(c1ccccc1Cl)=C2c1ccc(O[C@H]2CCN(CCCF)C2)cc1
3. Oc1ccc2c(c1)CCCC(c1cccc(Cl)c1F)=C2c1ccc(O[C@H]2CCN(CCCF)C2)cc1

[reply]
1. 61
2. 31
3. 41

Provide reported metabolised for each item, in the same order as listed.
1. O=C(O)c1ccc2c(c1)CCCC(c1ccc(Cl)cc1)=C2c1ccc(O[C@H]2CCN(CCCF)C2)cc1
2. Oc1ccc(C2=C(c3ccc(O[C@H]4CCN(CCCF)C4)cc3)c3ccc(O)cc3CCC2)cc1
3. Oc1ccc2c(c1)CCCC(c1ccc3[nH]ncc3c1)=C2c1ccc(O[C@H]2CCN(CCCF)C2)cc1
4. Oc1ccc2c(c1)CCCC(c1ccc(F)cc1Cl)=C2c1ccc(O[C@H]2CCN(CCCF)C2)cc1
5. O=C(O)c1ccc2c(c1)CCCC(c1ccc(Cl)cc1Cl)=C2c1ccc(O[C@H]2CCN(CCCF)C2)cc1
6. Oc1ccc2c(c1)CCCC(c1ccc(Cl)cc1Cl)=C2c1ccc(O[C@H]2CCN(CCCF)C2)cc1
7. Oc1ccc2c(c1)C(c1ccc(O[C@H]3CCN(CCCF)C3)cc1)=C(c1ccc(F)cc1Cl)CCC2

[reply]
1: 15; 2: 25; 3: 65; 4: 20; 5: 13; 6: 18; 7: 30
